Origin of values: patent US20250206836A1

target: T1, mouse CD36 (on HEK 293 cells) (mouse, UniProt Q08857 1-472); test: FACS, HEK 293 cells transiently overexpressing CD36;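 note: antibody binding to transfected cells detected by flow cytometry with a fluorescent anti-human secondary antibody, EC50 from a four-parameter sigmoidal fit of mean fluorescence intensity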
T1 construct: also called Murine CD36
T1 sequence (Q08857 whole entry): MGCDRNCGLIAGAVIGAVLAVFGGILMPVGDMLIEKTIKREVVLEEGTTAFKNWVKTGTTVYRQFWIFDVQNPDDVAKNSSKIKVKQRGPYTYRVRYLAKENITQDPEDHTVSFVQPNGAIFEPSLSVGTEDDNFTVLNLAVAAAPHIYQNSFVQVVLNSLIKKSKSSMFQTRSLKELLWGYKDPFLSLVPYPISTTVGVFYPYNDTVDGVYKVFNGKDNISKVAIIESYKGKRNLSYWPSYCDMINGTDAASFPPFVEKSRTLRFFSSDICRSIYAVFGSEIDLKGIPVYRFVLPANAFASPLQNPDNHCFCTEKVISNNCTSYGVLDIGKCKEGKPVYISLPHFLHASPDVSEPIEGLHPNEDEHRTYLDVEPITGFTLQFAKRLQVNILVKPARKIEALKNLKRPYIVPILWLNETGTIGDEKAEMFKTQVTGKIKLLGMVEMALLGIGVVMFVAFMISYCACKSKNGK
This listing pairs binders with measured EC50.
Expressed in nM, but write only the number.

Example binders with recorded EC50:
INSERT INTO assay_data (binder, measure_unit, test_value) VALUES
  ('5G04 (antibody, human IgG1, V domains shown, Chimeric: mouse variable regions on human IgG1 LALA (L234A/L235A); also called 05G04; 005G04) VH: QVQLQQSGAELVMPGASVKMSCKASGYTFTDYWMHWVKQRPGQGLEWIGAIDTSDSYTSYNQKFKGKATLTVDESSSTAYMQLSSLTSEDSAVYYCARDYYGSSTAWFAYWGQGTLVTVSA VL: ETTVTQSPASLSMAIGEKVTIRCITSTDIDDDMNWYQQKPGEPPKLLISEGNTLRPGVPSRFSSSGYGTDFVFTIDNMLSEDVADYYCLQSDNLPFTFGSGTKLEIK', 'nM', 5.03),
  ('33G04 (antibody, human IgG1, V domains shown, Chimeric: chicken variable regions on human IgG1 LALA (L234A/L235A); also called 033G04) VH: AVTLDESGGGLQTPGGALSLVCKASGFDFSSYAMGWVRQAPGKGLEWVAGKAKDGGGTAYGSAVKGRATISRDNGQSTVRLQLSNLRAEDTGVYYCAKSAYGDWFYGSSGPYADSIDAWGHGTEVIVSS VL: ALTQPSSVSASPGETVKITCSGSSDSWYGWYQQKSPGSALVTVIYDSTNRPSSIPSRFSGSTSGSTGTLTITGVRADDEAVYFCGSFDSSTDSTAFGAGTTLTVL', 'nM', 4.33),
  ('36G04 (antibody, human IgG1, V domains shown, Chimeric: chicken variable regions on human IgG1 LALA (L234A/L235A); also called 036G04) VH: AVTLDESGGGLQTPGGALSLVCKASGFIFSSYGMGWVRQAPGKGLEYIAAISNDGSKADYGAAVKGRATISRDNGQSTVRLQLNNLRAEDTATYYCAKSADTGYCSWSACIADSIDAWGHGTEVIVSS VL: ALTQPSSVSAIPGETVKITCSGGGSDYGWYQQKSPGSAPVTVIYWSDNRPSNIPSRFSGSESGSTATLTITGVRAEDEAVYFCGGYDSSGSGMFGAGTTLTVL', 'nM', 0.66),
  ('37G04 (antibody, human IgG1, V domains shown, Chimeric: chicken variable regions on human IgG1 LALA (L234A/L235A); also called 037G04) VH: AVTLDESGGGLQTPGGALSLVCKASGFTFSDYDMLWVRQAPGKGLEFVAGINAASTYTDYGAAVKGRATISRDNGQSTVRLQVNNLRAEDTGTYYCAKSSYGGGWSDVGSIDAWGHGTEVIVSS VL: ALTQPSSVSANPGETVKITCSGDRSYYGYGWYQQKAPGSAPVTVIYWDDKRPSDIPSRFSGSTSGSTATLTITGVQAEDEAVYFCGNMDSSYVGMFGAGTTLTVL', 'nM', 2.29),
  ('28G04 (antibody, human IgG1, V domains shown, Chimeric: mouse variable regions on human IgG1 LALA (L234A/L235A); also called 028G04) VH: EVQLQQSGPELVKPGASVKISCKTSGYTFTEYTIHWVKQSHGKSLEWIGGIIPNNGGSSHKQNFKDKATLTVDKSSSTAYMELRSLTSEDSAVYYCARAGDYAFDYWGQGTTLTVSS VL: ETTVTQSPASLSMAIGEKVTIRCITSTDIDDDMNWYQQKPGEPPKLLISEGNTLRPGVPSRFSSSGYGTDFVFTIENMLSEDVADYYCLQSGTLPFTFGSGTKLEIK', 'nM', 8.5);

Entry under test: 9G04 (antibody, human IgG1, V domains shown, Chimeric: mouse variable regions on human IgG1 LALA (L234A/L235A); also called 09G04; 009G04) VH: QVQLQQSGAELVRPGASVTLSCKASGYTFTDYEMHWVKQTPVHGLEWIGTVDPETGGTAFNQKFKDKASLTADKSSSTVYMELRSLTSEDSAVYYCSRGYGNYGAWFAYWGQGTLVTVSA VL: ETTVTQSPASLSVATGEKVTIRCITSTDIDDDMNWYQQKPGEPPKLLISEGNTLRPGVPSRFSSSGYGTDFVFTIENMLSEDVADYYCLQSDNLPFTFGSGTKLEIK . Its EC50 was 12
